# Tested on: NCI-H460
# measurement-protocol: relative viability (nuclei count vs DMSO), 5 days (fraction); higher = more cells survive
# test-parameters: first compound 1 µM
quantity-kind: relative viability
Lab note: record just the number, no unit beside it.

molecule | relative viability
NC(=O)Nc1cc(-c2cccc(F)c2)sc1C(=O)N[C@H]1CCCNC1 [AZD7762] + C[C@@H](Oc1cc(-c2cnn(C3CCNCC3)c2)cnc1N)c1c(Cl)ccc(F)c1Cl [Crizotinib] (partner 1 µM) | 0.0457
NC(=O)Nc1cc(-c2cccc(F)c2)sc1C(=O)N[C@H]1CCCNC1 [AZD7762] + Cc1cc(Nc2cc(N3CCN(C)CC3)nc(Sc3ccc(NC(=O)C4CC4)cc3)n2)n[nH]1 [Tozasertib] (partner 0.1 µM) | 0.031
NC(=O)Nc1cc(-c2cccc(F)c2)sc1C(=O)N[C@H]1CCCNC1 [AZD7762] + CS(=O)(=O)CCNCc1ccc(-c2ccc3ncnc(Nc4ccc(OCc5cccc(F)c5)c(Cl)c4)c3c2)o1 [Lapatinib] (partner 2 µM) | 0.0597

In the following, a different molecule is considered.
Give NCI-H460 relative viability for NC(=O)Nc1cc(-c2cccc(F)c2)sc1C(=O)N[C@H]1CCCNC1 [AZD7762] + COc1cc2c(Oc3ccc(NC(=O)C4(C(=O)Nc5ccc(F)cc5)CC4)cc3F)ccnc2cc1OCCCN1CCOCC1 [Foretinib] (partner 0.25 µM)
0.176

###

# Test system: NCI-H2009
# measurement-protocol: relative viability (nuclei count vs DMSO), 5 days (fraction); higher = more cells survive
# test-parameters: first compound 8 µM
relative viability values, listed per item
# print the numeric value only

Answered cases to consult:
compound | relative viability
C=C1C(=O)O[C@@H](CCCCCCCC)[C@@H]1C(=O)O [C-75] + CS(=O)(=O)N1CCN(Cc2cc3nc(-c4cccc5[nH]ncc45)nc(N4CCOCC4)c3s2)CC1 [Pictilisib] (partner 1 µM) | 0.6
C=C1C(=O)O[C@@H](CCCCCCCC)[C@@H]1C(=O)O [C-75] + C[C@]1(O)C[C@@H](c2nc(-c3ccc4ccc(-c5ccccc5)nc4c3)c3c(N)nccn32)C1 [Linsitinib] (partner 1 µM) | 0.997

From here, focus on the item given below.
What does the record list as relative viability for C=C1C(=O)O[C@@H](CCCCCCCC)[C@@H]1C(=O)O [C-75] + CC1(C)CCC(c2ccc(Cl)cc2)=C(CN2CCN(c3ccc(C(=O)NS(=O)(=O)c4ccc(N[C@H](CCN5CCOCC5)CSc5ccccc5)c(S(=O)(=O)C(F)(F)F)c4)cc3)CC2)C1 [Navitoclax] (partner 0.5 µM) ?
0.946

###

# System: IA-LM
# measurement-protocol: relative viability (nuclei count vs DMSO), 5 days (fraction); higher = more cells survive
# test-parameters: first compound 0.4 µM
# relative viability per entry

compound | quantity-kind | result
O=C(O)c1ccc(-c2c[nH]c3ncc(-c4ccccc4)cc23)cc1C1CCCC1 + O=C(CCCCCCC(=O)Nc1ccccc1)NO [Vorinostat] (partner 1 µM) | relative viability | 1.13
O=C(O)c1ccc(-c2c[nH]c3ncc(-c4ccccc4)cc23)cc1C1CCCC1 + CC(C)C[C@H](NC(=O)[C@H](Cc1ccccc1)NC(=O)c1cnccn1)B(O)O [Bortezomib] (partner 0.002 µM) | relative viability | 0.761
O=C(O)c1ccc(-c2c[nH]c3ncc(-c4ccccc4)cc23)cc1C1CCCC1 + CS(=O)(=O)N1CCN(Cc2cc3nc(-c4cccc5[nH]ncc45)nc(N4CCOCC4)c3s2)CC1 [Pictilisib] (partner 1 µM) | relative viability | 0.344

--- query ---
For O=C(O)c1ccc(-c2c[nH]c3ncc(-c4ccccc4)cc23)cc1C1CCCC1 + Cc1nc(NC(=O)N2CCC[C@H]2C(N)=O)sc1-c1ccnc(C(C)(C)C(F)(F)F)c1 [Alpelisib] (partner 2 µM) , what is its reported relative viability?
0.713
